System: SK-OV-3
Assay: Inhibition of cells growth by colorimetric (SRB) assay, SK-OV-3
Details: read-out: GI50 SKOV-3; SRB assay, 48 hours exposure

{"columns": ["compound", "GI50, µM"],
 "data": [
  ["Cl.Nc1nccc(-c2c3c(N)ccnc3n3c(N)nccc23)n1", 0.7],
  ["Cc1ccc2c(-c3ccnc(N)n3)c3ccnc(N)n3c2n1", 1.39],
  ["Nc1nccc(-c2c3cc4ccccc4nc3n3c(N)nccc23)n1 [Compound 19a]", 1.14],
  ["COc1nccc(-c2c3cccnc3n3c(N)nccc23)n1.Cl", 0.797],
  ["Nc1nccc2c(-c3ccncn3)c3c(O)ccnc3n12", 1.74],
  ["CCOc1nccc(-c2c3cccnc3n3c(N)nccc23)n1.Cl", 0.992],
  ["Cl.Nc1nccc2c(-c3ccncn3)c3c(O)ccnc3n12", 4.44]
]}

* * *

Test system: SK-MEL-28
Assay: Inhibition of cells growth by colorimetric (SRB) assay, SK-MEL-28
Conditions: SRB assay, 48 hours exposure
# Lookup of reported MEL-28 TGI keyed by entry

{"columns": ["compound", "MEL-28 TGI"],
 "data": [
  ["Cl.Nc1nccc(-c2c3c(Cl)ccnc3n3c(N)nccc23)n1", "3.64E−06"],
  ["CSc1nccc(-c2c3c(Cl)ccnc3n3c(N)nccc23)n1.Cl", "2.64E−05"],
  ["CSc1nccc(-c2c3ccc(C)nc3n3c(N)nccc23)n1", "3.72E−06"],
  ["Nc1nccc(-c2c3cccnc3n3c(N)nccc23)n1 [Deoxyvariolin 4, deoxyvariolin B, reference compound]", "1.49E−07"],
  ["CSc1nccc(-c2c3c(O)ccnc3n3c(N)nccc23)n1.Cl", "7.43E−06"],
  ["CSc1nccc(-c2c3cccnc3n3c(N(C(C)=O)C(C)=O)nccc23)n1", "5.38E−07"],
  ["CS(=O)(=O)c1nccc(-c2c3cccnc3n3c(N)nccc23)n1", "2.94E−05"],
  ["CSc1nccc(-c2c3cccnc3n3c(N)nccc23)n1.Cl", "4.49E−06"],
  ["CSc1nccc(-c2c3cc4ccccc4nc3n3c(N)nccc23)n1 [Compound 18a]", "1.20E−05"]
]}

* * *

# Lookup of reported CC50 keyed by entry
Test system: DU-145
Assay: Inhibition of cells growth by colorimetric (SRB) assay, DU-145
Settings: Homo sapiens, DU-145, 48 h, read-out: LC50 DU-145, SRB assay, 48 hours exposure
Protocol: The finality of these assays is to interrupt the growth of a “in vitro” tumor cell culture by means a continued exhibition of the cells to the sample to be testing. […] Cells are seeded in 96 well microtiter plates, at 5×10^3 cells per well in aliquots of 195 μl medium, and they are allowed to attach to the plate surface by growing in drug free medium for 18 hours. […] Optical densities are read on a automated spectrophotometric plate reader at a single wavelength of 490 nm. […]
metric-name: CC50 (µM)

{"columns": ["molecule", "bound-type", "quantitative-result"],
 "data": [
  ["Cl.Nc1nccc(-c2c3cccnc3n3c(N)nccc23)n1 [Compound 51]", "=", 2.7],
  ["Nc1nccc2c(-c3cccc([N+](=O)[O-])c3)c3cccnc3n12 [Compound 64]", "=", 32.8],
  ["Nc1nccc(-c2c3cc(F)c(Cl)nc3n3c(N)nccc23)n1 [Compound 50]", "≥", 30.3],
  ["COc1ccc(CNc2ccnc3c2c(-c2ccnc([S+](C)[O-])n2)c2ccnc(NCc4ccc(OC)cc4)n23)cc1 (stereo not shown) [Compound 86]", "≥", 17.3],
  ["C[S+]([O-])c1nccc(-c2c3c(Cl)ccnc3n3c(N)nccc23)n1 (stereo not shown) [Compound 110]", "≥", 27.9],
  ["COc1nccc(-c2c3c(O)ccnc3n3c(N)nccc23)n1 [Compound 105]", "=", 32.4],
  ["COc1ccc2nc3c(cc2c1)c(-c1ccnc(SC)n1)c1ccnc(N)n13 [Compound 18b]", "≥", 25.7],
  ["Nc1nccc(-c2c3c(F)ccnc3n3c(N)nccc23)n1 [Compound 115]", "=", 10.7],
  ["CS(=O)(=O)c1nccc(-c2c3c(Cl)ccnc3n3c(N)nccc23)n1 [Compound 111]", "=", 16.8],
  ["COc1nccc(-c2c3c(Cl)ccnc3n3c(N)nccc23)n1 [Compound 112]", "=", 3.06],
  ["COc1ccc(CNc2ccnc3c2c(-c2ccnc(OC)n2)c2ccnc(NCc4ccc(OC)cc4)n23)cc1 [Compound 87]", "=", 17.3],
  ["CSc1nccc(-c2c3cccnc3n3ccccc23)n1 [Compound 55]", "≥", 34.2],
  ["Cc1ccc2c(-c3ccnc(N)n3)c3ccnc(N)n3c2n1 [Compound 24]", "=", 15.6],
  ["COc1nccc(-c2c3c(N)ccnc3n3c(N)nccc23)n1 [Compound 88]", "=", 18.7],
  ["Nc1nccc2c(-c3ccncn3)c3c(O)ccnc3n12 [Compound 100]", "≥", 25.5],
  ["Nc1nccc(-c2c3cc(Cl)cnc3n3c(N)nccc23)n1 [Compound 49]", "=", 32.1],
  ["Nc1nccc2c(-c3cccs3)c3cccnc3n12 [Compound 65]", "≥", 37.5],
  ["Nc1nccc2c(-c3ccncn3)c3c(OCc4ccccc4)ccnc3n12 [Compound 98]", "=", 27.1],
  ["CSc1nccc(-c2c3c(Cl)ccnc3n3c(N)nccc23)n1 [Compound 107]", "=", 29.2],
  ["COc1ccc2nc3c(cc2c1)c(-c1ccnc(N)n1)c1ccnc(N)n13 [Compound 19b]", "=", 28],
  ["CSc1nccc2c(C(C)C)c3cccnc3n12 [Compound 61]", "≥", 38.9],
  ["CSc1nccc2c(-c3cccs3)c3cccnc3n12 [Compound 60]", "≥", 33.6],
  ["CSc1nccc(-c2c3cccnc3n3c(N(C(C)=O)C(C)=O)nccc23)n1 [Compound 26]", "=", 14.9],
  ["CC(C)c1c2cccnc2n2c(N)nccc12 [Compound 66]", "≥", 44.2],
  ["COc1nccc(-c2c3c(OC)ccnc3n3c(N)nccc23)n1 [Compound 109]", "=", 31],
  ["Nc1nccc(-c2c3c(Cl)ccnc3n3c(N)nccc23)n1 [Compound 113]", "=", 32.1],
  ["Nc1nccc2c(-c3ccnc(O)n3)c3cccnc3n12 [Compound 80]", "=", 35.9],
  ["Cl.Nc1nccc2c(-c3ccncn3)c3cccnc3n12 [Compound 71]", "=", 33.5],
  ["Nc1nccc(-c2c3cccnc3n3ccccc23)n1 [Compound 56]", "=", 25.6],
  ["Nc1nccc2c(-c3ccnc(O)n3)c3c(O)ccnc3n12 [Compound 106]", "=", 24.5],
  ["Nc1nccc2c(-c3ccnc(Oc4ccccc4)n3)c3cccnc3n12 [Compound 78]", "=", 28.2]
]}

The reported measurements were obtained from patent US7772241B2.
